IC50 by entry:
Experiment: Inhibition of interleukin-23 binding to rat interleukin-23 receptor incubated for 2 hrs by competitive binding ELISA
Where a SMILES comes first, the peptide text is derived from it. [ ]: non-standard residue; d: D form. hLeu = CC(C)CC[C@H](N)C(=O)O
Please state the figure in µM; there is no need to write the unit.

CC(=O)N[C@@H](CS)C(=O)N[C@@H](CO)C(=O)N[C@H](C(=O)N[C@@H](Cc1c[nH]c2ccccc12)C(=O)N[C@@H](CCC(N)=O)C(=O)N[C@@H](CS)C(=O)N[C@@H](Cc1ccc(O)cc1)C(=O)N[C@@H](Cc1c[nH]c2ccccc12)C(=O)N[C@@H](CC(C)C)C(=O)N[C@@H](CCCCN)C(=O)N[C@@H](Cc1cnc[nH]1)C(=O)NCC(=O)NCC(=O)N[C@@H](CCC(=O)O)C(N)=O)[C@@H](C)O (Ac-CSTWQCYWLKHGGE-NH2) = 0.024

[in] Give IC50 for CC(=O)N[C@@H](CS)C(=O)N[C@@H](CCC(N)=O)C(=O)N[C@H](C(=O)N[C@@H](Cc1c[nH]c2ccccc12)C(=O)N[C@@H](CCC(N)=O)C(=O)N[C@@H](CS)C(=O)N[C@@H](Cc1ccc(O)cc1)C(=O)N[C@@H](Cc1c[nH]c2ccccc12)C(=O)N[C@@H](CCC(C)C)C(=O)N[C@@H](CCC(=O)O)C(=O)N[C@@H](CCC(=O)O)C(=O)NCC(N)=O)[C@@H](C)O (Ac-CQTWQCYW[hLeu]EEG-NH2)
[out] 0.053

----------
Assay: AUC in rat plasma at 20 mg/kg, po
Type: ADME, organism-based
Readout Name: AUC (ng·h/mL)
Please state the figure in ng·h/mL; there is no need to write the unit.

[in] Give AUC for `CC(=O)N[C@H]1CCSC[C@@H](C(=O)N[C@@H](Cc2ccc(OCCN)cc2)C(=O)N[C@@H](Cc2c[nH]c3ccccc23)C(=O)N[C@@](C)(CCCCN)C(=O)N[C@@H](CCC(=O)O)C(=O)N[C@@H](CC(N)=O)C(=O)NCC(N)=O)NC(=O)[C@H](CCC(N)=O)NC(=O)[C@H](Cc2c[nH]c3ccccc23)NC(=O)[C@H]([C@@H](C)O)NC(=O)[C@H](CCC(N)=O)NC1=O`
[out] 300

----------
Target: Interleukin-23 receptor (Homo sapiens, UniProt Q5VWK5)
Experiment: Inhibition of interleukin-23 receptor in human DB cells assessed as reduction in IL-23-stimulated STAT3 phosphorylation incubated for 30 mins by HTRF assay
Assay type: cell-based
Readout Name: IC50

# example entries with known answers
CC(=O)N[C@H](CCC(=O)O)C(=O)N[C@H]1CCSC[C@@H](C(=O)N[C@@H](Cc2ccc(OCCN)cc2)C(=O)N[C@@H](Cc2ccc3ccccc3c2)C(=O)N[C@@](C)(CCCCN)C(=O)N[C@@H](CCC(=O)O)C(=O)N[C@@H](CC(N)=O)C(=O)N[C@@H](CC(N)=O)C(N)=O)NC(=O)[C@H](CCC(N)=O)NC(=O)[C@H](Cc2c[nH]c3ccccc23)NC(=O)[C@H]([C@@H](C)O)NC(=O)[C@H](CCC(N)=O)NC1=O = < 10 nM
CC(=O)NCCCC[C@H](NC(=O)[C@](C)(CCCCN)NC(=O)[C@H](Cc1ccc2ccccc2c1)NC(=O)[C@H](Cc1ccc(OCCN)cc1)NC(=O)[C@@H]1CSCC[C@H](NC(C)=O)C(=O)N[C@@H](CCC(N)=O)C(=O)N[C@@H]([C@@H](C)O)C(=O)N[C@@H](Cc2c[nH]c3ccccc23)C(=O)N[C@@H](CCC(N)=O)C(=O)N1)C(=O)N[C@@H](CC(N)=O)C(=O)NCC(N)=O = < 10 nM
CC(=O)N[C@H](C(=O)NCC(=O)N[C@H](C(=O)N[C@@H](Cc1c[nH]c2ccccc12)C(=O)N[C@@H](CCC(N)=O)C(=O)N[C@H](C(=O)N[C@@H](Cc1ccc(OCCN)cc1)C(=O)N[C@@H](Cc1ccc2ccccc2c1)C(=O)N[C@@](C)(CCCCN)C(=O)N[C@@H](CCC(=O)O)C(=O)N[C@@H](CC(N)=O)C(=O)NCC(N)=O)C(C)(C)S)[C@@H](C)O)C(C)(C)S = < 10 nM
CC(=O)N[C@@H](CS)C(=O)N[C@@H](CCC(N)=O)C(=O)N[C@H](C(=O)N[C@@H](Cc1c[nH]c2ccccc12)C(=O)N[C@@H](CCC(N)=O)C(=O)N[C@@H](CS)C(=O)N[C@@H](Cc1ccc(O)cc1)C(=O)N[C@@H](Cc1c[nH]c2ccccc12)C(=O)N[C@@H](CCCNC(N)=O)C(=O)N[C@@H](CN)C(=O)N[C@@H](Cc1ccccc1)C(=O)NCC(=O)NCCOCC(=O)N[C@H](CCCCN)C(N)=O)[C@@H](C)O = 1000 to 10000 nM

[in] Give IC50 for `CC(=O)NCCCC[C@H](NC(=O)C(C)(C)NC(=O)[C@H](Cc1ccc2ccccc2c1)NC(=O)[C@H](Cc1ccc(OCCN)cc1)NC(=O)[C@@H](NC(=O)[C@H](CCC(N)=O)NC(=O)[C@H](Cc1c[nH]c2ccccc12)NC(=O)[C@@H](NC(=O)[C@H](CCC(N)=O)NC(=O)[C@@H](NC(C)=O)C(C)(C)S)[C@@H](C)O)C(C)(C)S)C(=O)N[C@@H](CC(N)=O)C(=O)N[C@@H](C)C(N)=O`
[out] < 10 nM

[in] Give IC50 for `CC(=O)NCCCC[C@H](NC(=O)[C@](C)(CCCCN)NC(=O)[C@H](Cc1ccc2ccccc2c1)NC(=O)[C@H](Cc1ccc(OCCN)cc1)NC(=O)[C@@H]1CSCC[C@H](NC(=O)CCC(=O)O)C(=O)N[C@@H](CCC(N)=O)C(=O)N[C@@H]([C@@H](C)O)C(=O)N[C@@H](Cc2c[nH]c3ccccc23)C(=O)N[C@@H](CCC(N)=O)C(=O)N1)C(=O)N[C@@H](CC(N)=O)C(=O)NCC(N)=O`
[out] < 10 nM

----------
Biological target: Interleukin-23 receptor (Homo sapiens, UniProt Q5VWK5)
Sequence (Q5VWK5 whole entry): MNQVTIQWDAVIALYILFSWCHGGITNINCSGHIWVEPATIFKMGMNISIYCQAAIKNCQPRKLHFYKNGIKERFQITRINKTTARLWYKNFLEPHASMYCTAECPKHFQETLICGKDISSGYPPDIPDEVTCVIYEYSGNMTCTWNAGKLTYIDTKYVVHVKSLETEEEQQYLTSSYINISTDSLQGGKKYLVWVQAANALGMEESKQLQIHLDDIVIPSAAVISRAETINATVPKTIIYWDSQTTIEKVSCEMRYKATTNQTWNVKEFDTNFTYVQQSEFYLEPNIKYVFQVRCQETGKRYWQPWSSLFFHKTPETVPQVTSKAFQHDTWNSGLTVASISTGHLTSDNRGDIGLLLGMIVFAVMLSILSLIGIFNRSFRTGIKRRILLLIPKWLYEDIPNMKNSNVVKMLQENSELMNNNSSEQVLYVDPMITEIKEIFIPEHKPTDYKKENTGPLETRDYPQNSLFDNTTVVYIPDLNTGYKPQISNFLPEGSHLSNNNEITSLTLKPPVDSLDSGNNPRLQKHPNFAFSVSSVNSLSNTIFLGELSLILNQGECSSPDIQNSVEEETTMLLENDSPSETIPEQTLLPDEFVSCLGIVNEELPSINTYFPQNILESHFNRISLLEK
Assay: Inhibition of interleukin-23 binding to human interleukin-23 receptor incubated for 2 hrs by competitive binding ELISA
Where a SMILES comes first, the peptide text is derived from it.
Readout Name: IC50

# example entries with known answers
CC(=O)N[C@@H](CS)C(=O)N[C@@H](CCC(N)=O)C(=O)N[C@H](C(=O)N[C@@H](Cc1c[nH]c2ccccc12)C(=O)N[C@@H](CCC(N)=O)C(=O)N[C@@H](CS)C(=O)N[C@@H](CCC(=O)O)C(=O)N[C@@H](Cc1c[nH]c2ccccc12)C(=O)N[C@@H](CCC(C)C)C(=O)N[C@@H](CCC(=O)O)C(=O)N[C@@H](CC(N)=O)C(=O)NCC(N)=O)[C@@H](C)O = > 30000 nM
CC(=O)NCCCC[C@H](NC(=O)[C@](C)(CCCCN)NC(=O)[C@H](Cc1ccc2ccccc2c1)NC(=O)[C@H](Cc1ccc(-c2ccccc2)cc1)NC(=O)[C@@H](NC(=O)[C@H](CCC(N)=O)NC(=O)[C@H](Cc1c[nH]c2ccccc12)NC(=O)[C@@H](NC(=O)[C@H](CCC(N)=O)NC(=O)[C@@H](NC(C)=O)C(C)(C)S)[C@@H](C)O)C(C)(C)S)C(=O)N[C@@H](CC(N)=O)C(=O)NCC(N)=O = > 10000 nM
COc1ccc(C[C@H](NC(=O)[C@@H]2CSCC[C@H](NC(C)=O)C(=O)N[C@@H](CCC(N)=O)C(=O)N[C@@H]([C@@H](C)O)C(=O)N[C@@H](Cc3c[nH]c4ccccc34)C(=O)N[C@@H](CCC(N)=O)C(=O)N2)C(=O)N[C@@H](Cc2c[nH]c3ccccc23)C(=O)N[C@@](C)(CCCN)C(=O)N[C@@H](CCC(=O)O)C(=O)N[C@@H](CC(N)=O)C(=O)NCC(N)=O)cc1 = 25 to 100 nM

[in] Give IC50 for `CC(=O)N[C@@H](CS)C(=O)N[C@@H](CCC(N)=O)C(=O)N[C@H](C(=O)N[C@@H](Cc1c[nH]c2ccccc12)C(=O)N[C@@H](CCC(N)=O)C(=O)N[C@@H](CS)C(=O)N[C@@H](Cc1ccc(O)cc1)C(=O)N[C@H](CC(=O)N[C@@H](CCCNC(=N)N)C(=O)N[C@H](C(=O)N[C@@H](CC(N)=O)C(=O)NCC(=O)NCCOCC(=O)N[C@H](CCCCN)C(N)=O)C(C)C)Cc1ccccc1)[C@@H](C)O`
[out] > 30000 nM

[in] Give IC50 for `CC(=O)N[C@@H](CS)C(=O)N[C@@H](CCC(N)=O)C(=O)N[C@H](C(=O)N[C@@H](Cc1c[nH]c2ccccc12)C(=O)N[C@@H](CCC(N)=O)C(=O)N[C@@H](CS)C(=O)N[C@@H](Cc1ccc(O)cc1)C(=O)N[C@@H](CCc1ccccc1)CC(=O)N[C@@H](CCCNC(=N)N)C(=O)N[C@H](C(=O)N[C@@H](CC(N)=O)C(=O)NCC(=O)NCCOCC(=O)N[C@H](CCCCN)C(N)=O)C(C)C)[C@@H](C)O`
[out] > 30000 nM

[in] Give IC50 for `CC(=O)N[C@H](C(=O)N[C@@H](CCC(N)=O)C(=O)N[C@H](C(=O)N[C@@H](Cc1c[nH]c2ccccc12)C(=O)N[C@@H](CCC(N)=O)C(=O)N[C@H](C(=O)N[C@@H](Cc1ccc(O)cc1)C(=O)N[C@@H](Cc1cccc2ccccc12)C(=O)N[C@@](C)(CCCN)C(=O)N[C@@H](CCC(=O)O)C(=O)N[C@@H](CC(N)=O)C(=O)NCC(N)=O)C(C)(C)S)[C@@H](C)O)C(C)(C)S`
[out] 100 to 1000 nM

[in] Give IC50 for `CCCCCCCCCCCCCCCC(=O)NCCCC[C@H](NC(=O)[C@H](Cc1c[nH]c2ccccc12)NC(=O)[C@@H](NC(=O)[C@H](CCC(N)=O)NC(=O)[C@H](CS)NC(C)=O)[C@@H](C)O)C(=O)N[C@@H](CS)C(=O)N[C@@H](Cc1ccc(O)cc1)C(=O)N[C@@H](Cc1c[nH]c2ccccc12)C(=O)N[C@@H](CC(C)C)C(=O)N[C@@H](CCC(=O)O)C(=O)N[C@@H](CC(N)=O)C(=O)NCC(N)=O`
[out] 30000 nM

[in] Give IC50 for `CC(C)[C@H](NC(=O)[C@H](Cc1c[nH]c2ccccc12)NC(=O)[C@H](CC(=O)O)NC(=O)[C@H](C)NC(=O)[C@@H](N)CS)C(=O)N[C@@H](CS)C(=O)N[C@@H](Cc1ccc(O)cc1)C(=O)N[C@@H](Cc1cccc2ccccc12)C(=O)N[C@@H](Cc1cnc[nH]1)C(=O)N[C@H](C(=O)N[C@@H](Cc1ccccc1)C(=O)N(C)CC(=O)O)[C@@H](C)O`
[out] > 1000 nM

[in] Give IC50 for `CC(C)[C@H](NC(=O)[C@H](Cc1c[nH]c2ccccc12)NC(=O)[C@H](CC(=O)O)NC(=O)[C@H](C)NC(=O)[C@@H](N)CS)C(=O)N[C@@H](CS)C(=O)N[C@@H](Cc1ccc(O)cc1)C(=O)N[C@@H](Cc1cccc2ccccc12)C(=O)N(C)[C@@H](Cc1cnc[nH]1)C(=O)N[C@H](C(=O)N[C@@H](Cc1ccccc1)C(=O)O)[C@@H](C)O`
[out] > 1000 nM

[in] Give IC50 for `CC(C)[C@H](NC(=O)[C@H](Cc1c[nH]c2ccccc12)NC(=O)[C@H](CC(=O)O)NC(=O)[C@H](C)NC(=O)[C@@H](N)CS)C(=O)N[C@@H](CS)C(=O)N[C@@H](Cc1ccc(O)cc1)C(=O)N[C@@H](Cc1cccc2ccccc12)C(=O)N[C@@H](Cc1cnc[nH]1)C(=O)N[C@H](C(=O)N[C@@H](Cc1ccccc1)C(=O)NCC(N)=O)[C@@H](C)O`
[out] 500 to 1000 nM

[in] Give IC50 for CC(=O)N[C@@H](CS)C(=O)N[C@@H](C)C(=O)N[C@@H](CC(=O)O)C(=O)N[C@@H](Cc1c[nH]c2ccccc12)C(=O)N[C@H](C(=O)N[C@@H](CS)C(=O)N[C@@H](Cc1ccc(O)cc1)C(=O)N[C@@H](Cc1c[nH]c2ccccc12)C(=O)N[C@@H](Cc1cnc[nH]1)C(=O)N[C@@H](CCCNC(=N)N)C(=O)N[C@@H](CO)C(=O)N[C@H](C(=O)NCC(=O)NCC(=O)N[C@@H](CCC(N)=O)C(=O)N[C@@H](Cc1cnc[nH]1)C(N)=O)[C@@H](C)O)C(C)C (Ac-CADWVCYWHRSTGGQH-NH2)
[out] 500 to 1000 nM
